# procedure-details: Multiple ascending dose (MAD) study: multiple-dose pharmacokinetics
# Format: in vivo, human
# study-conditions: human, plasma, oral, 120 mg, 120 mg BID × 14 Days, Day 7
measurement-label: Tmax (h)
Respond with the bare value in h.

Form field: reported Tmax of CC(=O)c1nn(CC(=O)N2[C@H](C(=O)Nc3nc(Br)ccc3C)C[C@@]3(C)C[C@@H]23)c2ccc(-c3cnc(C)nc3)cc12 [Compound 1]
1.75

----------
# procedure-details: Multiple ascending dose (MAD) study: multiple-dose pharmacokinetics
# Type: in vivo, human
# study-conditions: human, plasma, oral, 200 mg, 200 mg BID, all 12 hr (evening) troughs; read-out: Mean C(12), steady-state trough
measurement-label: concentration at 12 hr
Output should be the measured figure followed by the unit it is expressed in.

Please look up its concentration at 12 hr: CC(=O)c1nn(CC(=O)N2[C@H](C(=O)Nc3nc(Br)ccc3C)C[C@@]3(C)C[C@@H]23)c2ccc(-c3cnc(C)nc3)cc12
247 ng/mL

----------
# procedure-details: Phase I single ascending dose (SAD) study: plasma and urine pharmacokinetics
# Format: in vivo, human
# study-conditions: human, plasma, oral, 80 mg, 80 mg single dose, fasted, plasma; read-out: Vz/F, Mean
measurement-label: Vd/F (L)
Numeric answer only, unit L assumed.

Item CC(=O)c1nn(CC(=O)N2[C@H](C(=O)Nc3nc(Br)ccc3C)C[C@@]3(C)C[C@@H]23)c2ccc(-c3cnc(C)nc3)cc12 has what recorded Vd/F?
992

----------
# procedure-details: Phase I single ascending dose (SAD) study: plasma and urine pharmacokinetics
# Type: in vivo, human
# study-conditions: human, plasma, oral, 40 mg, 40 mg single dose, fasted, plasma; read-out: Vz/F, Mean
measurement-label: Vd/F (L)
Reply numerically in L, unit not repeated.

Look up Vd/F for this compound: CC(=O)c1nn(CC(=O)N2[C@H](C(=O)Nc3nc(Br)ccc3C)C[C@@]3(C)C[C@@H]23)c2ccc(-c3cnc(C)nc3)cc12
1500

----------
# procedure-details: Multiple ascending dose (MAD) study: multiple-dose pharmacokinetics
# Assay type: in vivo, human
# study-conditions: human, plasma, oral, 80 mg, 80 mg BID × 14 Days, Day 1; read-out: AUC(0-12), Mean
measurement-label: AUC(0-t)
Number plus unit, in that order.

I have this molecule here, CC(=O)c1nn(CC(=O)N2[C@H](C(=O)Nc3nc(Br)ccc3C)C[C@@]3(C)C[C@@H]23)c2ccc(-c3cnc(C)nc3)cc12 , and I need its recorded AUC(0-t).
856 ng·h/mL

----------
# procedure-details: Multiple ascending dose (MAD) study: multiple-dose pharmacokinetics
# Assay type: in vivo, human
# study-conditions: human, plasma, oral; 120 mg BID, all 0 hr (morning) troughs; read-out: Mean C(0), steady-state trough
measurement-label: C0 at 0 hr (ng/mL)
Kindly provide the numeric value in ng/mL only, without the unit symbol.

Bench note: what C0 at 0 hr did CC(=O)c1nn(CC(=O)N2[C@H](C(=O)Nc3nc(Br)ccc3C)C[C@@]3(C)C[C@@H]23)c2ccc(-c3cnc(C)nc3)cc12 show?
153

----------
# procedure-details: Multiple ascending dose (MAD) study: multiple-dose pharmacokinetics
# Assay type: in vivo, human
# study-conditions: human, plasma, oral, 120 mg, 120 mg BID, Day 6, 0 hr post-dose (120 h); read-out: Pre-dose (trough) plasma concentration, Mean
measurement-label: concentration at 120 h (ng/mL)
Value expressed in ng/mL; do not type the unit.

What does the data say about its concentration at 120 h? Entry: CC(=O)c1nn(CC(=O)N2[C@H](C(=O)Nc3nc(Br)ccc3C)C[C@@]3(C)C[C@@H]23)c2ccc(-c3cnc(C)nc3)cc12 [Compound 1]
165

meta.source: patent US12239645B2
